# test: Aqueous solubility at pH 7.4
# Type: physicochemical
measuredQuantity: solubility (µg/mL)
Give bare numbers, in µg/mL.

Example entries begin here.
{"molecule": "CC(C)(C)c1ccc(-c2nc3c(N4CCN(Cc5ccc6ncccc6c5)CC4)cccc3[nH]2)cc1", "solubility [µg/mL]": 2}
{"molecule": "CC(C)(C)c1ccc(-c2nc3c(N4CCN(Cc5cnc6[nH]c(=O)c(=O)[nH]c6c5)CC4)cccc3[nH]2)cc1", "solubility [µg/mL]": 4}

Would you be so kind as to report solubility for each listed record?
1. CC(C)(C)c1ccc(-c2nc3c(N4CCN(Cc5ccc6cccnc6c5)CC4)cccc3[nH]2)cc1
2. CC(C)(C)c1ccc(-c2nc3c(N4CCN(Cc5ccc6c(c5)NCC(=O)N6)CC4)cccc3[nH]2)cc1

**Result**
1: 4; 2: 1

###

# test: Tmax in castrated rat at 20 mg/kg, po
# Format: ADME, organism-based
# Set-up: dose 20 mg/kg, route oral
# conditionContext: male, in vivo
measuredQuantity: Tmax (h)
Numbers only, in h.

**Query** What does the record list as Tmax for `CC(C)(C)c1ccc(-c2nc3c(N4CCN(Cc5ccc6nccnc6c5)CC4)cccc3[nH]2)cc1` ?
**Result** 2

###

Record form. Attribute: half-life. Fill in for each entry.
# test: Metabolic stability in rat liver microsomes assessed as half life
# Format: ADME, Microsome
Answers are plain numbers, in min.

// each molecule listed below needs its half-life
1. CC(C)(C)c1ccc(-c2nc3c(N4CCN(Cc5ccc6[nH]c(=O)c(=O)[nH]c6c5)CC4)cccc3[nH]2)cc1
2. CC(C)(C)c1ccc(-c2nc3c(N4CCN(Cc5ccc6nccnc6c5)CC4)cccc3[nH]2)cc1
3. CC(C)(C)c1ccc(-c2nc3c(N4CCN(Cc5ccc6c(c5)NCC(=O)N6)CC4)cccc3[nH]2)cc1
4. CC(C)(C)c1ccc(-c2nc3c(N4CCN(Cc5cnc6[nH]c(=O)c(=O)[nH]c6c5)CC4)cccc3[nH]2)cc1

**Result**
1. 14
2. 16
3. 3
4. 30

**Query** Entry under review: `CC(C)(C)c1ccc(-c2nc3c(N4CCN(Cc5ccc6[nH]c(=O)c(=O)n(Cc7cccnc7)c6c5)CC4)cccc3[nH]2)cc1` . Reported half-life?
**Result** 10

###

# test: Clearance in castrated rat plasma at 1 mg/kg, iv
# Type: ADME, organism-based
# Design: dose 1 mg/kg, route intravenous
# conditionContext: male
measuredQuantity: clearance (mL/min/kg)
Give bare numbers, in mL/min/kg.

**Query** Could you share which clearance value was measured for `CC(C)(C)c1ccc(-c2nc3c(N4CCN(Cc5ccc6nccnc6c5)CC4)cccc3[nH]2)cc1` ?
**Result** 38

###

# test: Aqueous solubility at pH 7.4
# Format: physicochemical
measuredQuantity: solubility

Worked set:
{"molecule": "CC(C)(C)c1ccc(-c2nc3c(N4CCN(Cc5ccc6[nH]c(=O)c(=O)n(Cc7cccnc7)c6c5)CC4)cccc3[nH]2)cc1", "solubility": "< 1 µg/mL"}
{"molecule": "CC(C)(C)c1ccc(-c2nc3c(N4CCN(Cc5ccc6[nH]c(=O)c(=O)[nH]c6c5)CC4)cccc3[nH]2)cc1", "solubility": "< 1 µg/mL"}

Now let's try a different one.
**Query** Look up solubility: `Cn1c(=O)c(=O)[nH]c2ccc(CN3CCN(c4cccc5[nH]c(-c6ccc(C(C)(C)C)cc6)nc45)CC3)cc21`
**Result** < 1 µg/mL
